Origin of the recorded values: ChEMBL document CHEMBL3885861

Species: Rattus norvegicus
Assay remarks: Open TG-GATES - Regimen: Daily Repeat
Type: toxicity, organism-based, Sprague-Dawley
Design: regimen Daily Repeat, gender Male, age 6 weeks
Cond: in vivo, po, 100 mg/kg, […], tissue Blood, route gavage, dose level Low, time 28 day
Can you tell me Eos for the items I'm about to list?
# output: bare number, implied unit %

For Cc1nnc2n1-c1ccc(Cl)cc1C(c1ccccc1Cl)=NC2 [TRIAZOLAM] , what is its reported Eos?
1.2

# get_value(readout='Eos', item= CN/C(=N/CCSCc1nc[nH]c1C)NC#N [CIMETIDINE] )
1.2

Given the compound CNC(=C[N+](=O)[O-])NCCSCc1ccc(CN(C)C)o1 [RANITIDINE] , what is its reported Eos?
1

Recorded Eos for O=C(OC[C@H]1O[C@@H](OC(=O)c2cc(O)c(O)c(OC(=O)c3cc(O)c(O)c(O)c3)c2)[C@H](OC(=O)c2cc(O)c(O)c(OC(=O)c3cc(O)c(O)c(O)c3)c2)[C@@H](OC(=O)c2cc(O)c(O)c(OC(=O)c3cc(O)c(O)c(O)c3)c2)[C@@H]1OC(=O)c1cc(O)c(O)c(OC(=O)c2cc(O)c(O)c(O)c2)c1)c1cc(O)c(O)c(OC(=O)c2cc(O)c(O)c(O)c2)c1 [TANNIC ACID] , please?
1.2

For CCOc1ccc(NC(C)=O)cc1 [PHENACETIN] , what is its reported Eos?
1.6

Need Eos, item COC(=O)C1=C(C)NC(C)=C(C(=O)OC)C1c1ccccc1[N+](=O)[O-] [NIFEDIPINE]
1

---

Hi there, I'd appreciate the recorded Mono for every entry that follows.
Species: Rattus norvegicus
Assay remarks: Open TG-GATES - Regimen: Daily Repeat
Type: toxicity, organism-based, Sprague-Dawley
Set-up: regimen Daily Repeat, gender Male, age 6 weeks
Cond: in vivo, po, 300 mg/kg, 72 h, tissue Blood, route gavage, dose level Middle, time 3 day
A number alone suffices; assume %.

Give its Mono value. Item: `CCOc1ccc(NC(C)=O)cc1`
3.4

Which Mono is reported for this compound? `O=C(OC[C@H]1O[C@@H](OC(=O)c2cc(O)c(O)c(OC(=O)c3cc(O)c(O)c(O)c3)c2)[C@H](OC(=O)c2cc(O)c(O)c(OC(=O)c3cc(O)c(O)c(O)c3)c2)[C@@H](OC(=O)c2cc(O)c(O)c(OC(=O)c3cc(O)c(O)c(O)c3)c2)[C@@H]1OC(=O)c1cc(O)c(O)c(OC(=O)c2cc(O)c(O)c(O)c2)c1)c1cc(O)c(O)c(OC(=O)c2cc(O)c(O)c(O)c2)c1`
10

Record request: Mono value, item `CN/C(=N/CCSCc1nc[nH]c1C)NC#N`
2.6

---

Species: Rattus norvegicus
Assay remarks: Open TG-GATES - Regimen: Single
Format: toxicity, organism-based, Sprague-Dawley
Parameters: regimen Single, gender Male, age 6 weeks
Cond: in vivo, po, 300 mg/kg, 6 h, tissue Blood, route gavage, dose level Middle
Observation type: PT (s)
Numeric only. Scale: s

Any idea what PT was measured for `CN/C(=N/CCSCc1nc[nH]c1C)NC#N` ?
13.4

Consider the compound `COC(=O)C1=C(C)NC(C)=C(C(=O)OC)C1c1ccccc1[N+](=O)[O-]` and give its measured PT.
14.9

Given the compound `Cc1nnc2n1-c1ccc(Cl)cc1C(c1ccccc1Cl)=NC2` , what is its reported PT?
13.5

Given the compound `CNC(=C[N+](=O)[O-])NCCSCc1ccc(CN(C)C)o1` , what is its reported PT?
12.6

Quick check: PT of `O=C(OC[C@H]1O[C@@H](OC(=O)c2cc(O)c(O)c(OC(=O)c3cc(O)c(O)c(O)c3)c2)[C@H](OC(=O)c2cc(O)c(O)c(OC(=O)c3cc(O)c(O)c(O)c3)c2)[C@@H](OC(=O)c2cc(O)c(O)c(OC(=O)c3cc(O)c(O)c(O)c3)c2)[C@@H]1OC(=O)c1cc(O)c(O)c(OC(=O)c2cc(O)c(O)c(O)c2)c1)c1cc(O)c(O)c(OC(=O)c2cc(O)c(O)c(O)c2)c1` ?
12

---

Species: Rattus norvegicus
Assay remarks: Open TG-GATES - Regimen: Daily Repeat
Assay type: toxicity, organism-based, Sprague-Dawley
Set-up: regimen Daily Repeat, gender Male, age 6 weeks
Cond: in vivo, po, 100 mg/kg, […], tissue Plasma, route gavage, dose level Low, time 7 day
Please provide measured ALP for the entries that follow.
Output spec: scalar in IU/L, unitless text.

Would you kindly share the measured ALP for O=C(OC[C@H]1O[C@@H](OC(=O)c2cc(O)c(O)c(OC(=O)c3cc(O)c(O)c(O)c3)c2)[C@H](OC(=O)c2cc(O)c(O)c(OC(=O)c3cc(O)c(O)c(O)c3)c2)[C@@H](OC(=O)c2cc(O)c(O)c(OC(=O)c3cc(O)c(O)c(O)c3)c2)[C@@H]1OC(=O)c1cc(O)c(O)c(OC(=O)c2cc(O)c(O)c(O)c2)c1)c1cc(O)c(O)c(OC(=O)c2cc(O)c(O)c(O)c2)c1 [TANNIC ACID] ?
796.4

Reported ALP, compound COC(=O)C1=C(C)NC(C)=C(C(=O)OC)C1c1ccccc1[N+](=O)[O-] [NIFEDIPINE] : ____
1407

Look at this compound and give its reported ALP. CCOc1ccc(NC(C)=O)cc1 [PHENACETIN]
1550.8

If you can, please state the reported ALP value of Cc1nnc2n1-c1ccc(Cl)cc1C(c1ccccc1Cl)=NC2 [TRIAZOLAM] .
1700.8

// ALP lookup, key: CN/C(=N/CCSCc1nc[nH]c1C)NC#N [CIMETIDINE]
831

Entry under review: CNC(=C[N+](=O)[O-])NCCSCc1ccc(CN(C)C)o1 [RANITIDINE] . Reported ALP?
852.4

---

Species: Rattus norvegicus
Assay remarks: Open TG-GATES - Regimen: Daily Repeat
Assay type: toxicity, organism-based, Sprague-Dawley
Set-up: regimen Daily Repeat, gender Male, age 6 weeks
Cond: in vivo, po, 300 mg/kg, […], tissue Plasma, route gavage, dose level Middle, time 14 day
Each entry gets N if its DBIL stays under 0.02 mg/dL, and Y if its DBIL is 0.02 mg/dL or above.

Has `CNC(=C[N+](=O)[O-])NCCSCc1ccc(CN(C)C)o1` a recorded DBIL greater than or equal to 0.02 mg/dL?
Y

Textbook exercise: given the entry `O=C(OC[C@H]1O[C@@H](OC(=O)c2cc(O)c(O)c(OC(=O)c3cc(O)c(O)c(O)c3)c2)[C@H](OC(=O)c2cc(O)c(O)c(OC(=O)c3cc(O)c(O)c(O)c3)c2)[C@@H](OC(=O)c2cc(O)c(O)c(OC(=O)c3cc(O)c(O)c(O)c3)c2)[C@@H]1OC(=O)c1cc(O)c(O)c(OC(=O)c2cc(O)c(O)c(O)c2)c1)c1cc(O)c(O)c(OC(=O)c2cc(O)c(O)c(O)c2)c1` , state whether its DBIL is greater than or equal to 0.02 mg/dL.
N

// inclusive: DBIL at least 0.02 mg/dL? input: `CN/C(=N/CCSCc1nc[nH]c1C)NC#N`
Y

Is reported DBIL greater than or equal to 0.02 mg/dL here: `COC(=O)C1=C(C)NC(C)=C(C(=O)OC)C1c1ccccc1[N+](=O)[O-]`
N

Determine whether this molecule has DBIL no lower than 0.02 mg/dL: `Cc1nnc2n1-c1ccc(Cl)cc1C(c1ccccc1Cl)=NC2`
N

---

Please provide measured Ca for the entries that follow.
Species: Rattus norvegicus
Assay remarks: Open TG-GATES - Regimen: Daily Repeat
Assay type: toxicity, organism-based, Sprague-Dawley
Design: regimen Daily Repeat, gender Male, age 6 weeks
Cond: in vivo, po, 1000 mg/kg, […], tissue Plasma, route gavage, dose level High, time 7 day
Quick reminder: number only, in mg/dL, skip the unit.

If you can, please state the reported Ca value of `Cc1nnc2n1-c1ccc(Cl)cc1C(c1ccccc1Cl)=NC2` .
11.2

Entry `O=C(OC[C@H]1O[C@@H](OC(=O)c2cc(O)c(O)c(OC(=O)c3cc(O)c(O)c(O)c3)c2)[C@H](OC(=O)c2cc(O)c(O)c(OC(=O)c3cc(O)c(O)c(O)c3)c2)[C@@H](OC(=O)c2cc(O)c(O)c(OC(=O)c3cc(O)c(O)c(O)c3)c2)[C@@H]1OC(=O)c1cc(O)c(O)c(OC(=O)c2cc(O)c(O)c(O)c2)c1)c1cc(O)c(O)c(OC(=O)c2cc(O)c(O)c(O)c2)c1` has what Ca?
10.8

State the recorded Ca for this entry: `CNC(=C[N+](=O)[O-])NCCSCc1ccc(CN(C)C)o1`
10.7

Any idea what Ca was measured for `CCOc1ccc(NC(C)=O)cc1` ?
11

Any idea what its Ca is? The molecule is `CN/C(=N/CCSCc1nc[nH]c1C)NC#N`
11
